The reported measurements were obtained from patent US20180215727A1.

# Lookup of reported pIC50 keyed by entry
# Tgt: human LOXL2 (Homo sapiens, UniProt Q9Y4K0)
# Construct: secreted protein in 10-20x concentrated conditioned media
# Sequence (Q9Y4K0 26-774): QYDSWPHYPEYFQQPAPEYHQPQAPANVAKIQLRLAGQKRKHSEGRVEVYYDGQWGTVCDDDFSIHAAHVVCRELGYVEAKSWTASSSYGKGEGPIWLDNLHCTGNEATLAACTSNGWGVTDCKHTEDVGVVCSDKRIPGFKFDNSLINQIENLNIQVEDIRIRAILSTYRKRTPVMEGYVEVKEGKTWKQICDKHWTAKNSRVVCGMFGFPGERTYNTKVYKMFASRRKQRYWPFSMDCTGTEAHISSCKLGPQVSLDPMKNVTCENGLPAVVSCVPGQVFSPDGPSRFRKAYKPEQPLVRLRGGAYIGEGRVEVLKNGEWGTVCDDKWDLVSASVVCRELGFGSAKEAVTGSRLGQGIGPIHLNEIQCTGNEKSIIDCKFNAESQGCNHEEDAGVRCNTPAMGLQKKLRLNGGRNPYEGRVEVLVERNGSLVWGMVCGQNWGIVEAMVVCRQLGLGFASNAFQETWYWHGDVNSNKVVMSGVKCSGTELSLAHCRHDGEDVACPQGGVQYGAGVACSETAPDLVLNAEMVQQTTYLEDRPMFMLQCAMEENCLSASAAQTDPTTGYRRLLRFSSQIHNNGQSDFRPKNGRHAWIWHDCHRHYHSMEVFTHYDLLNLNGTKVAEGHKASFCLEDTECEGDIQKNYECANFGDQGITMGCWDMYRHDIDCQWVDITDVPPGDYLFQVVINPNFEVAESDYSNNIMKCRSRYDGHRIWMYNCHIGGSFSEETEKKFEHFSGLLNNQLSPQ
# Experiment: Human LOXL2 Amine Oxidase Activity Assay (Amplex Red fluorescence)
# Experimental setup: concentrated conditioned media from CHO cells stably expressing human LOXL2, test compound incubated 2 h at 37° C., pH8, DAP substrate
pIC50: −log10 of the molar value. Where a name gives a salt, the structure may show the parent alone.

NCc1cc(=O)c2ccc(-c3cn(-c4ccccc4)nn3)cc2o1 [Compound 1-33, hydrochloride]	> 6.52
C#Cc1ccc2c(=O)cc(CN)oc2c1 [Compound 1-31, hydrochloride]	6.00 to 6.52
NCc1cc(=O)c2ccc(Nc3cnn(-c4ccccc4)c3)cc2o1 [Compound 1-70, hydrochloride]	> 6.52
NCc1cc(=O)c2ccc(OCc3cc4ccccc4s3)cc2o1 [Compound 1-66, hydrochloride]	> 6.52
NCc1cc(=O)c2ccc(N3CCN(C(=O)c4ccccc4)CC3)cc2o1 [Compound 1-41, hydrochloride]	> 6.52

Would you mind telling me what pIC50 value was observed for C=C(C)C#Cc1ccc2oc(CN)cc(=O)c2c1 [Compound 1-5, trifluoroacetate] ?
> 6.52

Would you mind telling me what pIC50 value was observed for NCc1cc(=O)c2cc(C(=O)N3C[C@@H](O)[C@H](F)C3)ccc2o1 (racemic) [Compound 1-25, hydrochloride] ?
6.00 to 6.52

Would you mind telling me what pIC50 value was observed for NCc1cc(=O)c2ccc(OCc3ccccc3)cc2o1 [Compound 1-29, hydrochloride] ?
> 6.52

Would you mind telling me what pIC50 value was observed for NCc1cc(=O)c2ccc(Oc3cccc(C(F)(F)F)c3)cc2o1 [Compound 1-67, hydrochloride] ?
> 6.52

Would you mind telling me what pIC50 value was observed for COc1ccc2c(=O)cc(CN)oc2c1 [Compound 1-28, hydrochloride] ?
> 6.52

Would you mind telling me what pIC50 value was observed for NCc1cc(=O)c2ccc(OCC#Cc3ccccc3)cc2o1 [Compound 1-63, hydrochloride] ?
> 6.52
